Biological target: IRAK3 (Homo sapiens)
Construct: IRAK Endogenous HTRF Degradation Assay; endogenous in cells
Sequence (Q9Y616 1-596): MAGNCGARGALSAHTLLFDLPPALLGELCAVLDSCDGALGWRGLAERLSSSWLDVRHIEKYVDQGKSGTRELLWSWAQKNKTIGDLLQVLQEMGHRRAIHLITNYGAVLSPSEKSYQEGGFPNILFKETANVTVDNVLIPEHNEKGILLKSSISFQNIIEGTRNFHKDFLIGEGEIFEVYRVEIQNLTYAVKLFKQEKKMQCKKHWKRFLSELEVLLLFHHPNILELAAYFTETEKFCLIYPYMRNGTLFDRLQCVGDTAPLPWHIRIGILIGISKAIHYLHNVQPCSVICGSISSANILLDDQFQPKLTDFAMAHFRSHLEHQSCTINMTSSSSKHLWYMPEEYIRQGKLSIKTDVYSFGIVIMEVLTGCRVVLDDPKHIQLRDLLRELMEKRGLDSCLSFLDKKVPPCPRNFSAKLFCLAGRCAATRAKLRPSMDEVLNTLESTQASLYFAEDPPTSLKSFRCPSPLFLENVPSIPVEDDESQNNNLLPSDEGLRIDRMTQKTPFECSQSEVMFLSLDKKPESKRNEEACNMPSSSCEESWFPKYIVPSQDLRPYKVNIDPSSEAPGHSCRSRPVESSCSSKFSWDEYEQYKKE
Test: IRAK3 biochemical binding assay (LanthaScreen Eu Kinase Binding, TR-FRET)
RECORDED ENDPOINT: pIC50
Note on units: pIC50 is unitless, being -log10 of a concentration expressed in mol/L.

Worked cases, pIC50 given:
{"COMPOUND": "O=C1CCC(c2ccc(N3CCN(CCN4CCC(n5cc(Nc6ncc(-c7cnn(C8CC8)c7)n7ccnc67)cn5)CC4)CC3)cc2)C(=O)N1 (stereo not drawn) [Compound 119]", "pIC50": 8.77}
{"COMPOUND": "Cc1cc(-c2ccc(Nc3cnn(C4CCN(CCN5CCN(c6ccc(C7CCC(=O)NC7=O)cc6)CC5)CC4)c3)c3nccn23)c(F)cc1F (stereo not drawn) [Compound 12]", "pIC50": 8.70}
{"COMPOUND": "Cc1cc(-c2cnc(Nc3cnn(C4CCN(CCN5[C@H](C)CN(c6ccc(C7CCC(=O)NC7=O)cc6)C[C@@H]5C)CC4)c3)c3nccn23)c(F)cc1F (stereo partly drawn) [Compound 13]", "pIC50": 8.89}
{"COMPOUND": "Cc1cc(-c2cnc(Nc3cnn(C4CCN(CCN5CCN(c6ccc([C@@]7(C)CCC(=O)NC7=O)cc6)CC5)CC4)c3)c3nccn23)c(F)cc1F [Compound 77]", "pIC50": 8.70}

// lookup pIC50 | system=IRAK3 (Homo sapiens) | key= Cc1cc(-c2cnc(Nc3cnn(C4CCN(CCN5CCC(n6cc(N7CCC(=O)NC7=O)cn6)CC5)CC4)c3)c3nccn23)c(F)cc1F [Compound 116]
9.92

// lookup pIC50 | system=IRAK3 (Homo sapiens) | key= O=C1CCC(c2ccc(N3CCN(CCN4CCC(n5cc(Nc6ncc(-c7cccc(F)c7)n7ccnc67)cn5)CC4)CC3)cc2)C(=O)N1 (stereo not drawn) [Compound 80]
6.85

###

Target: IRAK3 (Homo sapiens)
Construct: IRAK Endogenous HTRF Degradation Assay; endogenous in cells
Sequence (Q9Y616 1-596): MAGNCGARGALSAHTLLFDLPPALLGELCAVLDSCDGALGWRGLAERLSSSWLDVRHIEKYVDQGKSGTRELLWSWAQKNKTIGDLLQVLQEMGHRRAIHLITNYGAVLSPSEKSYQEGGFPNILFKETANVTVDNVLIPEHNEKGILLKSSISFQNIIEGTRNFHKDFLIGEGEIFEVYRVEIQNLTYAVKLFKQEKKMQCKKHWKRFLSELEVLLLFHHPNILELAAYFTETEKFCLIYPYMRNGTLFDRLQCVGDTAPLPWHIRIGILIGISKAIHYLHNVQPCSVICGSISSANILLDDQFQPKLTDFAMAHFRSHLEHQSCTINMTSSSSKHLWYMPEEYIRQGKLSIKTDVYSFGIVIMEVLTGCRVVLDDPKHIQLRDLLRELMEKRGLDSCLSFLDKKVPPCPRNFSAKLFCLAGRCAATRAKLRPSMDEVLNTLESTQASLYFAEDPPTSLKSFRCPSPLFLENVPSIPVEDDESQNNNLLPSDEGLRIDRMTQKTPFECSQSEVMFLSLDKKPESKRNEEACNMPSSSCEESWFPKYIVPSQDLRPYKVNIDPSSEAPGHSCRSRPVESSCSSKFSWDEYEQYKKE
Assay: IRAK endogenous HTRF degradation assay (Total-IRAK3 HTRF kit)
Format: cell-based
Details: overnight incubation, lowest percentage of protein remaining
Listed compounds paired with reported IRAK3 HTRF degradation Ymin
The reply should contain only the number, in %.

{"COMPOUND": "Cc1cc(-c2cnc(Nc3cnn(C4CCN(CCN5CCN(c6ccc(C7CCC(=O)NC7=O)cc6)[C@H](C)C5)CC4)c3)c3nccn23)c(F)cc1F (stereo partly drawn)", "SCALE UNIT": "%", "IRAK3 HTRF degradation Ymin": 9.8}
{"COMPOUND": "Cc1ccc(F)c(-c2cnc(Nc3cnn(C4CCN(CCN5CCN(c6ccc(C7CCC(=O)NC7=O)cc6)CC5)CC4)c3)c3nccn23)c1 (stereo not drawn)", "SCALE UNIT": "%", "IRAK3 HTRF degradation Ymin": 9.8}
{"COMPOUND": "Cc1cc(-c2cnc(Nc3cnn([C@@H]4CCN(CCN5CCN(c6ccc(C7CCC(=O)NC7=O)cc6)C[C@@H]5C)[C@H](C)C4)c3)c3nccn23)c(F)cc1F (stereo partly drawn)", "SCALE UNIT": "%", "IRAK3 HTRF degradation Ymin": 7.5}
{"COMPOUND": "Cc1cc(-c2cnc(Nc3cnn([C@H]4CC[C@@H](CCN5CCN(c6ccc(C7CCC(=O)NC7=O)cc6)C[C@@H]5C)CC4)c3)c3nccn23)c(F)cc1F (stereo partly drawn)", "SCALE UNIT": "%", "IRAK3 HTRF degradation Ymin": 14}
{"COMPOUND": "C[C@H]1CN(c2ccc(C3CCC(=O)NC3=O)cc2)CCN1CCN1CCC(n2cc(Nc3ncc(C4CC4)n4ccnc34)cn2)CC1 (stereo partly drawn)", "SCALE UNIT": "%", "IRAK3 HTRF degradation Ymin": 9.1}
{"COMPOUND": "Cc1cc(-c2cnc(Nc3cnn([C@H]4CCN(CCN5CCN(c6ccc(C7CCC(=O)NC7=O)cc6)CC5)[C@@H](C)C4)c3)c3nccn23)c(F)cc1F (stereo partly drawn)", "SCALE UNIT": "%", "IRAK3 HTRF degradation Ymin": 12}
{"COMPOUND": "Cc1cc(-c2cnc(Nc3cnn([C@H]4CC[C@H](CCN5CCN(c6ccc(C7CCC(=O)NC7=O)cc6)C[C@@H]5C)CC4)c3)c3nccn23)c(F)cc1F (stereo partly drawn)", "SCALE UNIT": "%", "IRAK3 HTRF degradation Ymin": 8.72}
{"COMPOUND": "Cc1cc(-c2cnc(Nc3cnn([C@H]4CC[C@H](CCN5CCN(c6ccc(C7CCC(=O)NC7=O)cc6)C[C@H]5C)CC4)c3)c3nccn23)c(F)cc1F (stereo partly drawn)", "SCALE UNIT": "%", "IRAK3 HTRF degradation Ymin": 10}

Give the measured IRAK3 HTRF degradation Ymin of Cc1cc(-c2cnc(Nc3cnn(C4CCN(CCN5CCN(c6ccc(C7CCC(=O)N(C)C7=O)cc6)CC5)CC4)c3)c3nccn23)c(F)cc1F (stereo not drawn) .
64

Give the measured IRAK3 HTRF degradation Ymin of Cc1cc(-c2cnc(Nc3cnn([C@H]4CC[C@@H](CCN5CCN(c6ccc(C7CCC(=O)NC7=O)cc6)CC5)CC4)c3)c3nccn23)c(F)cc1F (stereo partly drawn) .
13

Give the measured IRAK3 HTRF degradation Ymin of Cc1cccc(-c2cnc(Nc3cnn(C4CCN(CC(=O)N5CCN(c6ccc7c(c6)C(=O)N(C6CCC(=O)NC6=O)C7=O)CC5)CC4)c3)c3nccn23)c1 (stereo not drawn) .
27

Give the measured IRAK3 HTRF degradation Ymin of Cc1cc(-c2cnc(Nc3cnn(C4CCN(CCN5CCN(c6ccc(C7CCC(=O)NC7=O)cc6)C[C@@H]5C)CC4)c3)c3nccn23)c(F)cc1F (stereo partly drawn) .
12
